Origin of values: ChEMBL document CHEMBL4052672

tested on: Hepatitis C virus; assay: Antiviral activity against HCV genotype 4a subgenomic replicon infected in human Huh7-Lunet cells assessed as inhibition of viral replication by luciferase reporter gene assay; format: functional, cell-based, Hepacivirus hominis; details: Huh-7
Item-by-item account of pEC50
FYI, pEC50 means -log10 of a concentration in mol per litre.

| structure.as.smiles | assayed.target | pEC50 |
| --- | --- | --- |
| CC(C)OC(=O)[C@H](C)N[P@@](=O)(OC[C@H]1O[C@@H](n2ccc(=O)[nH]c2=O)C(Cl)(Cl)[C@@H]1O)Oc1ccccc1 | Hepatitis C virus | 7.18 |

Let's switch to this compound now.
# query: pEC50 of entry CC(C)OC(=O)[C@H](C)N[P@@](=O)(OC[C@H]1O[C@@H](n2ccc(=O)[nH]c2=O)[C@](C)(F)[C@@H]1O)Oc1ccccc1
6.64
